# collection of GI50 values tested on HCT-15
Please respond with the number in µM and leave the unit unwritten.

Exercise: GI50 for [O-][n+]1c2cc(CN3CCOCC3)c(CN3CCOCC3)cc2[n+]([O-])c2c(O)cccc21 ?
Key: 3.44

Exercise: Fill in: GI50 of CC(C)=CCc1c(O)cc2oc(-c3ccc(O)cc3O)cc(=O)c2c1O is ___
Key: 23

Exercise: # lookup: GI50 of COc1ccc(-c2c(=O)[nH]n3c(=S)[nH]c(-c4ccccc4)nc23)cc1OC
Key: 17.3

Exercise: Which GI50 reading was recorded for the compound O=C1N/C(=N/N=C/c2c[nH]c3ccccc23)N/C1=C\c1c[nH]c2ccccc12 ?
Key: 23

----------
- System: KM12
- assay.notes: NCI tumour cell line growth inhibition, 48 h
Active and inactive are the calls of the source. Rule as the data show it: active = GI50 up to about 1.1 µM and inactive = higher. Positions of bridges follow the written chain, without caps; N, C: chain ends. Residues, ends and D or L forms follow the SMILES beside them. Peptide text beside a SMILES is read from it. * marks the point of attachment. Cbz = O=C(OCc1ccccc1)*; CH2Cl = ClC*
// allowed return values: t (active), f (inactive)

Exercise: Tell me the assay call for COC1=C(OC)C(=O)C(Cc2c(Cl)nc3n2CCS3)=C(C)C1=O please.
Key: f

Exercise: Tell me the recorded outcome of this test for COC(=O)/N=[N+](\[O-])C(c1ccc(Cl)cc1)c1ccc(Cl)cc1 .
Key: f

Exercise: Call for entry Cc1ccccc1OC(C)C(=O)NN1C(=O)CSC1c1ccccc1 (stereo not given) :
Key: f

Exercise: Please state the recorded outcome for this compound: COc1ccc2oc(=N)c(C(=O)NCc3ccccc3)cc2c1
Key: f

Exercise: Please let me know the test result on file for CC(=O)O[C@@H]1[C@H]2O[C@H]2[C@H]2O[C@@]2(COC(=O)c2ccccc2)[C@H]1OC(C)=O .
Key: f

Exercise: What classification did N#Cc1ccc(NC(=O)C(CC(=O)OCc2ccccc2)NC(=O)OCc2ccccc2)cc1 (stereo not given) end up with in this test?
Key: f

Exercise: Just curious, what result did COc1ccc(Nc2nc3cc(C(F)(F)F)ccc3nc2C(=O)O)cc1OC get here?
Key: f

Exercise: Just curious, what result did CCc1ccccc1NC(=O)C1=C(C)NC(C)=C(C(=O)Nc2ccccc2CC)C1c1ccc2c(c1)OCO2 get here?
Key: f

Exercise: For this compound, state the assay outcome: N#Cc1c(N2CCCC2)nsc1Nc1ccc(F)cc1
Key: f

Exercise: Which outcome did this test record for the compound CC(C)CC(NC(=O)OCc1ccccc1)C(=O)NC(Cc1ccccc1)C(=O)CCl (stereo not drawn) (Cbz-Leu-Phe-CH2Cl; configuration not given here) ?
Key: f

Exercise: Would you mind telling me which call this test gave CCOC(=O)NC(=O)c1cn(CCCO)c(=O)[nH]c1=O ?
Key: f

Exercise: How did this test come out for c1c[nH]c(C23C4C5C6C4C2C6C53)n1 (stereo not given) ?
Key: f

Exercise: Per the assay record, what outcome was assigned to CNC(=O)CCCNC(=O)CCCCC(=O)N(C)C ?
Key: f

Exercise: Recorded test outcome, item CN(C)C1(C#N)CCC2(CC1)OCCO2
Key: f

Exercise: State the result this test recorded for O=C(CCN(CCO)CCO)Nc1ccc2c(c1)C(=O)c1ccc(NC(=O)CCN(CCO)CCO)cc1C2=O .
Key: f

Exercise: Outcome? Nc1c(Cl)ncnc1NCCCCCCCCCCCCNc1ncnc(Cl)c1N
Key: f

Exercise: Which outcome was assigned to CCC(C)C1NC(=O)C(CC(C)C)NC(=O)C(C(C)C)NC(=O)C2CSSCC(NC1=O)C(=O)N2 (stereo not given) (cyclo(CCVLI); disulfide 1-2; configuration not given here) in this test?
Key: t

Exercise: Please share the test call associated with Cc1cc(C)c2ccc(N3CCNCC3)nc2n1 .
Key: f

Exercise: So what was the verdict on CC1(C)O[C@@H]([C@H](O)CO)[C@H](O)[C@@H](C2SCCCS2)O1 in this test?
Key: f

Exercise: Recorded call for Cc1cc2c(-c3ccccc3)cc(=O)[nH]c2cc1N ?
Key: f

Exercise: Answer briefly: the call reported for Nc1nc(O)c2ncn(C3C=CC(CO)C3)c2n1 (stereo not given) in this assay.
Key: f

Exercise: Give the logged outcome of this assay for the following compound: CCCNc1[nH]c(C(=O)c2ccccc2)c(N)c1C(=S)Nc1ccccc1
Key: f

Exercise: Per the assay record, what outcome was assigned to Cc1nn(C(=O)c2ccccc2O)c2c1C(c1ccc(O)cc1O)SC(=N)N2 (stereo not given) ?
Key: f

Exercise: Which outcome was entered for the compound c1ccc(SCCc2ccncc2)cc1 in this test?
Key: f

Exercise: Could you check what this test reported for OCC1OC(n2cnc3c2N=CNC[C@H]3O)C(Cl)C1O (stereo not given in full) ?
Key: f

Exercise: Kindly provide the recorded test outcome for the following compound: NS(=O)(=O)c1ccc(NNC(=O)c2cccc3c(=O)c4ccccc4[nH]c23)cc1
Key: f

Exercise: Hey, what did the test say about O=C(CCc1nnc2s/c(=C\c3ccccc3[N+](=O)[O-])c(=O)n12)Nc1cc(Cl)c(Cl)cc1Cl ?
Key: f

Exercise: Hello, I am checking results. What call was entered for O=C1OC(C2OC(=O)c3cc(O)c(O)c(O)c3-c3c(O)c(O)c4oc(=O)c5c(c(O)c(O)c6oc(=O)c3c4c65)-c3c(cc(O)c(O)c3O)C(=O)OCC2O)C2OC(=O)c3c(c(O)c(O)c(O)c3[C@H]2O)-c2c1cc(O)c(O)c2O (stereo not given in full) ?
Key: f

Exercise: Record lookup: outcome of this test for CCOC(=O)NC(Nc1ccc(F)cc1)(C(=O)OCC)C(F)(F)F (stereo not given) ?
Key: t

Exercise: Recorded test call requested for O=C1c2ccccc2-c2nc3ccncc3n21
Key: f

Exercise: What outcome does the record of this test show for COC[C@@H](/N=C/N1CCc2cc(OC)c(OC)cc2[C@@H]1C)C(C)(C)C ?
Key: f

Exercise: Per the records of this test, what outcome belongs to CCCCN(CCCC)CCCn1cnc2ncccc2c1=O ?
Key: f

Exercise: In this assay, the call recorded for CN(CCCNC(=O)c1cn(C)c2c1Cc1ccccc1-2)CCCNC(=O)c1cn(C)c2c1Cc1ccccc1-2 was what?
Key: f

Exercise: Query: recorded result category for COc1ccc(C(=O)O)c2c(=O)c3cccnc3[nH]c12 in this test
Key: f

Exercise: Short answer needed: outcome of this test for c1ccc(-c2cc(C3CO3)c3ccccc3n2)cc1 (stereo not given) ?
Key: f

Exercise: Name the outcome recorded for CN(CCN(C)C(=O)CCOS(C)(=O)=O)C(=O)CCOS(C)(=O)=O in the assay.
Key: f

Exercise: Recorded test outcome, item c1ccc(Cc2cc(-c3ccccc3)[nH]n2)cc1
Key: f

Exercise: Fill in: this test's call for O=C1OC(C2Cc3ccccc3C2=O)c2ccccc21 (stereo not given) is ___
Key: f

Exercise: For C/C(=N\N=C(/S)N1CC2CCC(CC2)C1)c1cccc[n+]1[O-] , what call appears in the results of this test?
Key: f

Exercise: Lab log entry: CC(NC(=O)C(Cc1ccc(OC(=O)c2ccccc2)cc1)NC(=O)OC(C)(C)C)C(=O)NCC(=O)NC(Cc1ccccc1)NC(=O)OCc1ccccc1 (stereo not given) — outcome as called in the assay?
Key: f
